Let's look at some IC50 data for Histone deacetylase 1 (Homo sapiens, UniProt Q13547) that I collected from the literature.

Field: example entries. Status: answers known.
compound="CCCCCCCC(Cc1nc2cc(/C=C/C(=O)NO)ccc2n1CCN)OC (centres unmarked)" assay_target="Histone deacetylase 1 (Homo sapiens, UniProt Q13547)" result_type=IC50 result="29 nM"
compound=CCC1(CC)C(=O)N(Cc2ccc(-c3nnc(C(F)F)o3)cn2)C(=O)c2ccc(N3CCN(C(C)=O)CC3)cc21 assay_target="Histone deacetylase 1 (Homo sapiens, UniProt Q13547)" result_type=IC50 result="> 10000 nM"
compound="O=C(NO)c1cnc(Cn2ccc(C3(c4ccc(F)cc4)CCCO3)cc2=O)nc1 (centres unmarked)" assay_target="Histone deacetylase 1 (Homo sapiens, UniProt Q13547)" result_type=IC50 result="> 200 nM"
compound=CC(C)[C@@H]1NC(=O)C(C)(C)NC(=O)c2csc(n2)CNC(=O)C[C@@H](/C=C/CCS)OC1=O assay_target="Histone deacetylase 1 (Homo sapiens, UniProt Q13547)" result_type=IC50 result="1.2 nM"
compound=CC1(C)C(=O)N(Cc2ccc(-c3nnc(C(F)F)o3)cn2)C(=O)c2ccc(N3CC4(COC4)C3)cc21 assay_target="Histone deacetylase 1 (Homo sapiens, UniProt Q13547)" result_type=IC50 result="> 10000 nM"

API: value(readout=IC50, system=Histone deacetylase 1 (Homo sapiens, UniProt Q13547)) for record CCC(=O)CCCCC[C@H](NC(=O)CCn1c(CC)nc2ccccc21)c1nnc(-c2cc3ccccc3nc2OC)o1
< 100 nM

API: value(readout=IC50, system=Histone deacetylase 1 (Homo sapiens, UniProt Q13547)) for record Cn1cc(Cn2ncc3cc(C(=O)Nc4ccccc4N)ccc32)cn1
< 1000 nM

API: value(readout=IC50, system=Histone deacetylase 1 (Homo sapiens, UniProt Q13547)) for record CCNCCn1c(CCC(C)(C)C)nc2cc(/C=C/C(=O)NO)ccc21
51 nM
